molecular target: recombinant human GBA (beta-glucocerebrosidase) (Homo sapiens, UniProt P04062); assay: Beta-glucocerebrosidase (GBA, glucosylceramidase) assay (4-methylumbelliferyl-beta-D-pyranoside substrate, fluorescence)
Sequence (P04062 40-536): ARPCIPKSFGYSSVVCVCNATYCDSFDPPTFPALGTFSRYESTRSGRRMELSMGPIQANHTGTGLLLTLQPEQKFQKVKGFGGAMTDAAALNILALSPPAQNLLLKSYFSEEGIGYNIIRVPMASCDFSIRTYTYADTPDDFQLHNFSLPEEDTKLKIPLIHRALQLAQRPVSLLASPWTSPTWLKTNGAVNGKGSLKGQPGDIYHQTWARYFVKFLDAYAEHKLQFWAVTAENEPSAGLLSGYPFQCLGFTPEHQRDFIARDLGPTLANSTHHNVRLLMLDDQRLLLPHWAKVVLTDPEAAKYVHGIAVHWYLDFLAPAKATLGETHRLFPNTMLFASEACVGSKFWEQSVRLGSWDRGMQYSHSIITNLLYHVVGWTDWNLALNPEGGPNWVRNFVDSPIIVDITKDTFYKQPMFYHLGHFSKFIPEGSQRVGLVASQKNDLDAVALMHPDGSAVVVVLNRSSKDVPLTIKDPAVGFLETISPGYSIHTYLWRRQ
pIC50: −log10 of the molar value.
So basically: pIC50 at 6 or higher? That is true. Lower than 6? That is false.

{"molecule": "[N-]=[N+]=Nc1ccc(NCC[C@H]2CC[C@@H](CCN3C[C@H](O)[C@@H](O)[C@H](O)[C@H]3CO)CC2)c([N+](=O)[O-])c1 [Compound 1106]", "experimental_system": "recombinant human GBA (beta-glucocerebrosidase) (Homo sapiens, UniProt P04062)", "assigned_class": "false"}
{"molecule": "OC[C@@H]1[C@@H](O)[C@H](O)[C@@H](O)CN1CCCCCCNc1cc(C2CC2)cc(N2CCOCC2)c1 [Compound 1006]", "experimental_system": "recombinant human GBA (beta-glucocerebrosidase) (Homo sapiens, UniProt P04062)", "assigned_class": "true"}
{"molecule": "COc1cc(NCCc2ccc(CCN3C[C@H](O)[C@@H](O)[C@H](O)[C@H]3CO)cc2)cc(-c2noc(C3CCC3)n2)c1 [Compound 1120]", "experimental_system": "recombinant human GBA (beta-glucocerebrosidase) (Homo sapiens, UniProt P04062)", "assigned_class": "true"}
{"molecule": "Cc1cc(NCc2cccc(CN3C[C@H](O)[C@@H](O)[C@H](O)[C@H]3CO)n2)cc(-c2ncccn2)c1 [Compound 1322]", "experimental_system": "recombinant human GBA (beta-glucocerebrosidase) (Homo sapiens, UniProt P04062)", "assigned_class": "false"}
{"molecule": "OC[C@@H]1[C@@H](O)[C@H](O)[C@@H](O)CN1Cc1ccc(CNc2cc(-c3cccnn3)cc(C3CC3)c2)cc1 [Compound 1012]", "experimental_system": "recombinant human GBA (beta-glucocerebrosidase) (Homo sapiens, UniProt P04062)", "assigned_class": "false"}
{"molecule": "[N-]=[N+]=Nc1ccc(NCCc2ccc(CCN3C[C@@H](O)[C@H](O)[C@@H](O)[C@@H]3CO)c3ccccc23)c([N+](=O)[O-])c1 (stereo in doubt) [Compound 1178]", "experimental_system": "recombinant human GBA (beta-glucocerebrosidase) (Homo sapiens, UniProt P04062)", "assigned_class": "false"}
{"molecule": "[N-]=[N+]=Nc1ccc(NCCn2cc(CCN3C[C@H](O)[C@@H](O)[C@H](O)[C@H]3CO)c3ccccc32)c([N+](=O)[O-])c1 [Compound 1177]", "experimental_system": "recombinant human GBA (beta-glucocerebrosidase) (Homo sapiens, UniProt P04062)", "assigned_class": "false"}
{"molecule": "OC[C@@H]1[C@@H](O)[C@H](O)[C@@H](O)CN1Cc1cccc(CNc2ccc(-c3ncccn3)cc2)c1 [Compound 1084]", "experimental_system": "recombinant human GBA (beta-glucocerebrosidase) (Homo sapiens, UniProt P04062)", "assigned_class": "false"}
{"molecule": "Cc1cc(NCc2ccc(CN3C[C@H](O)[C@@H](O)[C@H](O)[C@H]3CO)cc2)cc(-c2cccnn2)c1 [Compound 1052]", "experimental_system": "recombinant human GBA (beta-glucocerebrosidase) (Homo sapiens, UniProt P04062)", "assigned_class": "false"}
{"molecule": "COc1cc(Br)cc(NCCn2cc(CCN3C[C@H](O)[C@@H](O)[C@H](O)[C@H]3CO)c3ccccc32)c1 [Compound 1075]", "experimental_system": "recombinant human GBA (beta-glucocerebrosidase) (Homo sapiens, UniProt P04062)", "assigned_class": "false"}
{"molecule": "COc1cc(NCCc2ccc(CCN3C[C@H](O)[C@@H](O)[C@H](O)[C@H]3CO)cc2)cc(-c2cccnn2)c1 [Compound 1157]", "experimental_system": "recombinant human GBA (beta-glucocerebrosidase) (Homo sapiens, UniProt P04062)", "assigned_class": "false"}
{"molecule": "Cc1cc(NCc2cccc(CN3C[C@H](O)[C@@H](O)[C@H](O)[C@H]3CO)c2)cc(N2CCOCC2)c1 [Compound 1031]", "experimental_system": "recombinant human GBA (beta-glucocerebrosidase) (Homo sapiens, UniProt P04062)", "assigned_class": "false"}

* * *

pIC50: −log10 of the molar value.
Record type: pIC50 measurement. Applies to: UniProtKB P23739
Sequence (P23739 whole entry): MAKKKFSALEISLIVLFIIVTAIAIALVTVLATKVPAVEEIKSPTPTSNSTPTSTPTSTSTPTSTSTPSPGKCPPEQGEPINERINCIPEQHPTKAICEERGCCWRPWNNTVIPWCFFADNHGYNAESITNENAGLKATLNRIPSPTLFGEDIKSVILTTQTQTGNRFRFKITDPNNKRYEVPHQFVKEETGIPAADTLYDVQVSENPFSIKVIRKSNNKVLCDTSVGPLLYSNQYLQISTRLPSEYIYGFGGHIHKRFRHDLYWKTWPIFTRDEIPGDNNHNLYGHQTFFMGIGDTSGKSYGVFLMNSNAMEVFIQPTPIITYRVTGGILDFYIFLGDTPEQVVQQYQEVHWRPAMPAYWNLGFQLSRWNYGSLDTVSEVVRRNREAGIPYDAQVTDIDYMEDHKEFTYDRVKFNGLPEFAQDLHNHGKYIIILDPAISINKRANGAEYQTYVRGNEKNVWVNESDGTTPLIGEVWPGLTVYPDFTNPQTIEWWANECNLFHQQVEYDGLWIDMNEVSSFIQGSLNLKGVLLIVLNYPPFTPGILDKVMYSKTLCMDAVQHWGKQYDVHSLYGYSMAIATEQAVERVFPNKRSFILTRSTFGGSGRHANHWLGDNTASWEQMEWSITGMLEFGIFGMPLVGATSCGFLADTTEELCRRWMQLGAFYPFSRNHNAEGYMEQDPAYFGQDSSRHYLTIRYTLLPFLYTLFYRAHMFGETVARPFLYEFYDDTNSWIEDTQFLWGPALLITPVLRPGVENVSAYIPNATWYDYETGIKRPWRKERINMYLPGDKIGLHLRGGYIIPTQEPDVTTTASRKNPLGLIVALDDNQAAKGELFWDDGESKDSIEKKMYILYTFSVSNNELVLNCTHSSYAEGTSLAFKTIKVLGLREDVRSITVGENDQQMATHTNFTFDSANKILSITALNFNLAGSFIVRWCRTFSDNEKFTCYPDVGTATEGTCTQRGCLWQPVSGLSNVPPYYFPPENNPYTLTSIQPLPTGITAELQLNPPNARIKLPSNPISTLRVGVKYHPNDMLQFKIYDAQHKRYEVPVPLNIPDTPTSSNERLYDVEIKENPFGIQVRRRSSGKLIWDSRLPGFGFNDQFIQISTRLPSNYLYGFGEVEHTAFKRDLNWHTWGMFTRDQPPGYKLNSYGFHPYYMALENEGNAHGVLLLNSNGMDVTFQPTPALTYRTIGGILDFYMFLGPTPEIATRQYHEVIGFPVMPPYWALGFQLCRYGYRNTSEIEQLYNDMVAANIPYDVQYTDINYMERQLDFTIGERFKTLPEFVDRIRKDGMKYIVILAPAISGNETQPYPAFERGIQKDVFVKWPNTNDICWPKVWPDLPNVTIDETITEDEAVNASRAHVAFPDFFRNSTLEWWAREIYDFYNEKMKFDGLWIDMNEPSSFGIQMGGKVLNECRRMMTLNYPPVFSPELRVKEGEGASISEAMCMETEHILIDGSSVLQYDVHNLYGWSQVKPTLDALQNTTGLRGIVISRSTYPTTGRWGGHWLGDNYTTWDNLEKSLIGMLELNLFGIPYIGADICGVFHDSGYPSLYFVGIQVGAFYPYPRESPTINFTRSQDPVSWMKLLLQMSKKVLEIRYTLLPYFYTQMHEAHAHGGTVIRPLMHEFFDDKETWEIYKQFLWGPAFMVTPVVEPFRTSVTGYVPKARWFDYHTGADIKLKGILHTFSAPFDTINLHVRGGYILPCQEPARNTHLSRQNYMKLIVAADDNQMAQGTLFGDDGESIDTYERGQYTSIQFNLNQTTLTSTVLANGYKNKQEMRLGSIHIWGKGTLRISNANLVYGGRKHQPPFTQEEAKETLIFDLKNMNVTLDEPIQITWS
measured_metric: pIC50

{"compound": "O=[N+]([O-])c1cc(N2C3CCC2COC3)ccc1NCc1ccc(CN2CC(O)C(O)C(O)C2CO)cc1 (stereo in doubt)", "measured_metric": "pIC50", "comparator": ">", "result_value": 9.00}
{"compound": "O=[N+]([O-])c1cc(-c2ncco2)ccc1NCCc1ccc(CCN2C[C@H](O)[C@@H](O)[C@H](O)[C@H]2CO)cc1", "measured_metric": "pIC50", "comparator": "=", "result_value": 6.04}
{"compound": "[N-]=[N+]=Nc1ccc(NCCc2cncc(CCN3C[C@H](O)[C@@H](O)[C@H](O)[C@H]3CO)n2)c([N+](=O)[O-])c1", "measured_metric": "pIC50", "comparator": "=", "result_value": 5.69}
{"compound": "Cc1cc(NCc2ccc(CN3C[C@H](O)[C@@H](O)[C@H](O)[C@H]3CO)cc2)cc(-n2nccn2)c1", "measured_metric": "pIC50", "comparator": "=", "result_value": 7.85}
{"compound": "OC[C@@H]1[C@@H](O)[C@H](O)[C@@H](O)CN1Cc1cccc(CNc2cc(-c3ncccn3)cc(C3CC3)c2)n1", "measured_metric": "pIC50", "comparator": "=", "result_value": 5.80}
{"compound": "Cc1cc(-c2ncccn2)ccc1NCCCCCCN1C[C@H](O)[C@@H](O)[C@H](O)[C@H]1CO", "measured_metric": "pIC50", "comparator": "=", "result_value": 6.89}
{"compound": "[N-]=[N+]=Nc1ccc(NCCN(CCC(N)=O)CCN2C[C@H](O)[C@@H](O)[C@H](O)[C@H]2CO)c([N+](=O)[O-])c1", "measured_metric": "pIC50", "comparator": "=", "result_value": 5.06}
{"compound": "OC[C@@H]1[C@@H](O)[C@H](O)[C@@H](O)CN1CCc1ccc(CCNc2cc(Cl)cc(C3=CCOCC3)c2)cc1", "measured_metric": "pIC50", "comparator": "=", "result_value": 6.03}
{"compound": "OC[C@@H]1[C@@H](O)[C@H](O)[C@@H](O)CN1CCCCCCNc1ccc(-c2ncccn2)cc1Cl", "measured_metric": "pIC50", "comparator": "=", "result_value": 7.21}
{"compound": "[N-]=[N+]=Nc1ccc(NCCCCCCN2C[C@H](O)[C@@H](O)[C@H](O)[C@H]2CO)c(C(=O)O)c1", "measured_metric": "pIC50", "comparator": "=", "result_value": 6.10}
{"compound": "CS(=O)(=O)c1cc(Br)cc(NCc2cccc(CN3C[C@H](O)[C@@H](O)[C@H](O)[C@H]3CO)c2)c1", "measured_metric": "pIC50", "comparator": "=", "result_value": 7.59}
{"compound": "OC[C@@H]1[C@@H](O)[C@H](O)[C@@H](O)CN1CCCCCCNc1ccc(-c2ncccn2)cc1F", "measured_metric": "pIC50", "comparator": "=", "result_value": 7.15}
{"compound": "N#Cc1cc(Br)cc(NCc2ccc(CN3C[C@H](O)[C@@H](O)[C@H](O)[C@H]3CO)cc2)c1", "measured_metric": "pIC50", "comparator": ">", "result_value": 9.00}
{"compound": "Cc1cc(NCc2cccc(CN3C[C@H](O)[C@@H](O)[C@H](O)[C@H]3CO)c2)cc(N2CCOCC2)c1", "measured_metric": "pIC50", "comparator": "=", "result_value": 6.54}
{"compound": "[N-]=[N+]=Nc1ccc(NCCn2cc(CCN3C[C@H](O)[C@@H](O)[C@H](O)[C@H]3CO)c3ccccc32)c([N+](=O)[O-])c1", "measured_metric": "pIC50", "comparator": "=", "result_value": 6.05}
{"compound": "O=[N+]([O-])c1cc(CCO)ccc1NCCCCCCN1C[C@H](O)[C@@H](O)[C@H](O)[C@H]1CO", "measured_metric": "pIC50", "comparator": "=", "result_value": 7.40}
{"compound": "[N-]=[N+]=Nc1ccc(NCCc2ccccc2CCN2C[C@H](O)[C@@H](O)[C@H](O)[C@H]2CO)c([N+](=O)[O-])c1", "measured_metric": "pIC50", "comparator": "=", "result_value": 5.73}
{"compound": "N#Cc1cc(NCc2ccc(CN3C[C@H](O)[C@@H](O)[C@H](O)[C@H]3CO)cc2)cc(-c2cccnn2)c1", "measured_metric": "pIC50", "comparator": "=", "result_value": 7.59}
{"compound": "CN(C)Cc1ccc(NCCCCCCN2C[C@H](O)[C@@H](O)[C@H](O)[C@H]2CO)c(F)c1", "measured_metric": "pIC50", "comparator": "=", "result_value": 6.60}
{"compound": "OC[C@@H]1[C@@H](O)[C@H](O)[C@@H](O)CN1Cc1ccc(CNc2cc(-c3ncccn3)cc(C3CC3)c2)cc1", "measured_metric": "pIC50", "comparator": "=", "result_value": 7.59}
{"compound": "[N-]=[N+]=Nc1ccc(NCCc2cccc(CCN3C[C@H](O)[C@@H](O)[C@H](O)[C@H]3CO)c2)c([N+](=O)[O-])c1", "measured_metric": "pIC50", "comparator": "=", "result_value": 6.50}
{"compound": "[N-]=[N+]=Nc1ccc(NCc2cccc(CN3C[C@H](O)[C@@H](O)[C@H](O)[C@H]3CO)c2)c([N+](=O)[O-])c1", "measured_metric": "pIC50", "comparator": ">", "result_value": 9.00}
{"compound": "N#Cc1ccc(NCCCCCCN2C[C@H](O)[C@@H](O)[C@H](O)[C@H]2CO)c([N+](=O)[O-])c1", "measured_metric": "pIC50", "comparator": "=", "result_value": 7.22}
{"compound": "CN(C)C(=O)c1cc(NCCCCCCN2C[C@H](O)[C@@H](O)[C@H](O)[C@H]2CO)cc(-c2ncccn2)c1", "measured_metric": "pIC50", "comparator": "=", "result_value": 4.87}
{"compound": "OC[C@@H]1[C@@H](O)[C@H](O)[C@@H](O)CN1Cc1ccc(CNc2ccc(-c3ncccn3)cc2)cc1", "measured_metric": "pIC50", "comparator": "=", "result_value": 7.64}
{"compound": "O=C(O)c1cc(Cl)cc(NCCc2ccc(CCN3C[C@H](O)[C@@H](O)[C@H](O)[C@H]3CO)cc2)c1", "measured_metric": "pIC50", "comparator": "=", "result_value": 6.32}
{"compound": "O=Cc1cc(-c2ncccn2)ccc1NCCCCCCN1C[C@H](O)[C@@H](O)[C@H](O)[C@H]1CO", "measured_metric": "pIC50", "comparator": "=", "result_value": 7.19}

Data origin, for the record: patent US20250197372A1
